target: Mineralocorticoid receptor (Rattus norvegicus) (UniProt P22199); experiment: Mineralocorticoid activity in vivo expressed as a ratio (M/DOCA) of the urinary sodium/potassium excretion transformations after deoxy-corticosterone acetate treatment.; format: functional, organism-based; conditions: Urine
Sequence (P22199 whole entry): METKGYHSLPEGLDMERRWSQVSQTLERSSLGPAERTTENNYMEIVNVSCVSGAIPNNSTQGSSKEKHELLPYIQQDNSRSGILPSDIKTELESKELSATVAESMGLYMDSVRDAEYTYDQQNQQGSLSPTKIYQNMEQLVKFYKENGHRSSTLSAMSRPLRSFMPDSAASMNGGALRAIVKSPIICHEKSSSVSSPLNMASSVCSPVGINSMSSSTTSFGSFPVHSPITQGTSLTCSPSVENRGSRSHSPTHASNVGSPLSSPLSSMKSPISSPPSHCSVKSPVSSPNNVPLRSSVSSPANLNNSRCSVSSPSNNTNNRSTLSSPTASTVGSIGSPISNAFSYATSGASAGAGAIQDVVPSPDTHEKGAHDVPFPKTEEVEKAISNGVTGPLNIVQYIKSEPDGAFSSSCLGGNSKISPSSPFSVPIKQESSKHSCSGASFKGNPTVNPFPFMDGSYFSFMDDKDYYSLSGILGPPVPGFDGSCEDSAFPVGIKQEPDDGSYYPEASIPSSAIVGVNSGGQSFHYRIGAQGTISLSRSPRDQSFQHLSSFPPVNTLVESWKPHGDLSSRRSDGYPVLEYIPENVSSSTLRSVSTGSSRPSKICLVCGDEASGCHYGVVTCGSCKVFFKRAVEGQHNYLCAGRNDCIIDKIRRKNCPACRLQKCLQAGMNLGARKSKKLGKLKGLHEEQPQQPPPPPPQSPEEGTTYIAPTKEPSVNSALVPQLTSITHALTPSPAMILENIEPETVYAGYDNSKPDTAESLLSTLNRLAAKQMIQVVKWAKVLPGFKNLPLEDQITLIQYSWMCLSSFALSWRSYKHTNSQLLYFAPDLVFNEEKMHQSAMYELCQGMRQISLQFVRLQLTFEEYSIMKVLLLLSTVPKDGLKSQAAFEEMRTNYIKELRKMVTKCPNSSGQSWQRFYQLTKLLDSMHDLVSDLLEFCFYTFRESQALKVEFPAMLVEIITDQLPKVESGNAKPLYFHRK
Ratio by entry:
Keep it simple and answer with nothing but the number.

Answered examples (5):
Q. # Ratio lookup, item CC(=O)OCC1(O)OCC23CC[C@H]4[C@@H](CC[C@H]5CC(=O)CCC54C)[C@@H]2CCC13 (some centres undefined)
A. 0.8

Q. # Ratio lookup, item C[C@@H](O)C1CC[C@H]2[C@@H]3CC[C@H]4CC(O)CCC4(C)[C@H]3CCC12CO (some centres undefined)
A. 0.72

Q. # Ratio lookup, item C[C@H]1OC(=O)C23CCC4C(CC=C5CC(O)CCC54C)C2CCC13 (some centres undefined)
A. 0.72

Q. # Ratio lookup, item CC(=O)OCC1(O)OC[C@]23CC[C@H]4[C@@H](CC[C@H]5CC(=O)CC[C@@]54C)[C@@H]2CC[C@H]13 (some centres undefined)
A. 0.96

Q. # Ratio lookup, item CC(=O)OCC1(O)OC[C@]23CC[C@H]4[C@@H](CC[C@H]5C[C@@H](O)CC[C@@]54C)[C@@H]2CC[C@H]13 (some centres undefined)
A. 0.83

New cases:
Q. # Ratio lookup, item C[C@H]1OC(=O)C23CC[C@H]4[C@@H](CC[C@H]5CC(O)CCC54C)[C@@H]2CCC13 (some centres undefined)
A. 0.61

Q. # Ratio lookup, item CC(=O)OCC1(O)OCC23CCC4C(CC=C5CC(O)CCC54C)C2CCC13 (centres undefined)
A. 0.55

Q. # Ratio lookup, item C[C@@H](O)C1CCC2C3CC=C4CC(O)CCC4(C)C3CCC21CO (some centres undefined)
A. 0.89

Q. # Ratio lookup, item C[C@@H](O)C1CCC2C3CCC4=CC(=O)CCC4(C)C3CCC21CO (some centres undefined)
A. 1.33

Q. # Ratio lookup, item C[C@@H](O)C1CC[C@H]2[C@@H]3CC[C@H]4CC(=O)CCC4(C)[C@H]3CCC12CO (some centres undefined)
A. 1.03

Q. # Ratio lookup, item C[C@H]1OC(=O)C23CC[C@H]4[C@@H](CC[C@H]5CC(=O)CCC54C)[C@@H]2CCC13 (some centres undefined)
A. 0.96

Q. # Ratio lookup, item CC(=O)OCC12CC[C@H]3[C@@H](CC[C@H]4CC(=O)CCC43C)[C@@H]1CCC2[C@@H](C)O (some centres undefined)
A. 0.93

Q. # Ratio lookup, item `C[C@@H](O)[C@H]1CC[C@H]2[C@@H]3CC[C@H]4CC(=O)CC[C@]4(C)[C@H]3CC[C@]12CO`
A. 0.43

Q. # Ratio lookup, item CC(=O)OCC12CCC3C(CCC4=CC(=O)CCC43C)C1CCC2[C@@H](C)O (some centres undefined)
A. 1.16

Q. # Ratio lookup, item CC(=O)OCC1(O)OCC23CC[C@H]4[C@@H](CC[C@H]5CC(O)CCC54C)[C@@H]2CCC13 (some centres undefined)
A. 1.1

Q. # Ratio lookup, item CC12CCC(=O)C=C1CCC1C2CCC23COC(O)(CO)C2CCC13 (centres undefined)
A. 0.54

Q. # Ratio lookup, item CC(=O)OCC1(O)OCC23CCC4C(CCC5=CC(=O)CCC54C)C2CCC13 (centres undefined)
A. 0.71

Q. # Ratio lookup, item CC(=O)OCC12CC[C@H]3[C@@H](CC[C@H]4CC(O)CCC43C)[C@@H]1CCC2C(C)=O (some centres undefined)
A. 0.99

Q. # Ratio lookup, item `CC(=O)OC[C@]12CC[C@H]3[C@@H](CC[C@H]4CC(=O)CC[C@@]43C)[C@@H]1CC[C@@H]2C(C)=O`
A. 1.08
